Entry source: patent US10829493B2

biological target: KIT D816V (Homo sapiens (Human), UniProt P10721, D816V/V560G); test: HMC1.2 autophosphorylation assay (phospho-Y719 KIT AlphaLISA); type: cell-based; conditions: HMC1.2 cell line, KIT autophosphorylation at tyrosine 719, 90 minutes; read-out: KIT (P-KIT HMC1.2 (nM))
Sequence (P10721 26-976 V560G/D816V): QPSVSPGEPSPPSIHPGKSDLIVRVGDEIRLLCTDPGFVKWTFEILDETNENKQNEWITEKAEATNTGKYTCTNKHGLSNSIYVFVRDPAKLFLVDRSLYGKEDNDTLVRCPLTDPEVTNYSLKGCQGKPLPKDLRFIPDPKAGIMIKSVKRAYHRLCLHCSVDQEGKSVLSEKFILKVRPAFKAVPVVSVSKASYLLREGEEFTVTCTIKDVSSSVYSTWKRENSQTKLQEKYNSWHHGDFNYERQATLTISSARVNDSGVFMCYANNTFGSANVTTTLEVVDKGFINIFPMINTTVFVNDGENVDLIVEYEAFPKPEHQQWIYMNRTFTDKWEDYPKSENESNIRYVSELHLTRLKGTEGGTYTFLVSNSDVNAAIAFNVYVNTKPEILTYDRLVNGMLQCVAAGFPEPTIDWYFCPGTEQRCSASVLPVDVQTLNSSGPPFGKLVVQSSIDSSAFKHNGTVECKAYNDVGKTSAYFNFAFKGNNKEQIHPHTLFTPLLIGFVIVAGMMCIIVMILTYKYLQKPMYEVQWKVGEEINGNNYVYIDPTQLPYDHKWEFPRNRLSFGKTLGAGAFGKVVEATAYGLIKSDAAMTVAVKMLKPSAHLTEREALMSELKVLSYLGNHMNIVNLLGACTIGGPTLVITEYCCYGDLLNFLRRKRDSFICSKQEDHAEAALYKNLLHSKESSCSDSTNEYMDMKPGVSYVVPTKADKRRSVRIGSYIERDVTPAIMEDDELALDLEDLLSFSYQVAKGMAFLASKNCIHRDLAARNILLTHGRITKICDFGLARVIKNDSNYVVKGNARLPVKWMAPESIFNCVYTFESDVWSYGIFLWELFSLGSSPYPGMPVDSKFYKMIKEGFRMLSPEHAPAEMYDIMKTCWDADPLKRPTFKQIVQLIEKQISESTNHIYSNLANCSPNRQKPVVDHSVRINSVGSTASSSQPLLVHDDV
endpoint: IC50

Solved entries (count: 2):
molecule | IC50
C[C@](N)(c1ccc(F)cc1)c1cnc(N2CCN(c3ncnn4cc(-c5cnn([C@H]6COC[C@@H]6O)c5)cc34)CC2)nc1 (single isomer, unassigned) | < 4.5 nM
C[C@](N)(c1ccc(F)cc1)c1cnc(N2CCN(c3ncnn4cc(-c5cnn([C@@H]6COC[C@@H]6O)c5)cc34)CC2)nc1 (single isomer, unassigned) | 4.6 to 10 nM

Considering C[C@](N)(c1ccc(F)cc1)c1cnc(N2CCN(c3ncnn4cc(-c5cnn([C@@H]6CCOC6)c5)cc34)CC2)nc1 , its IC50 with KIT D816V (Homo sapiens (Human), UniProt P10721, D816V/V560G) was recorded as < 4.5 nM

With KIT D816V (Homo sapiens (Human), UniProt P10721, D816V/V560G) as the test system, CCn1cc(-c2cc3c(N4CCN(c5ncc([C@@](C)(N)c6ccc(F)cc6)cn5)CC4)ncnn3c2)cn1 [Compound 63, reference compound] showed IC50 of < 4.5 nM

Result for C[C@](N)(c1ccc(F)cc1)c1cnc(N2CCN(c3ncnn4cc(-c5cnn([C@H]6C[C@@H](O)C6)c5)cc34)CC2)nc1 , tested on KIT D816V (Homo sapiens (Human), UniProt P10721, D816V/V560G), IC50: < 4.5 nM

C[C@](N)(c1ccc(F)cc1)c1cnc(N2CCN(c3ncnn4cc(-c5cnn(C6CCOCC6)c5)cc34)CC2)nc1 tested on KIT D816V (Homo sapiens (Human), UniProt P10721, D816V/V560G) gave IC50: 4.6 to 10 nM

Log: KIT D816V (Homo sapiens (Human), UniProt P10721, D816V/V560G), molecule C[C@](N)(c1ccc(F)cc1)c1cnc(N2CCN(c3ncnn4cc(-c5cnn([C@@H]6CC[C@H]6O)c5)cc34)CC2)nc1 (single isomer, unassigned) , IC50 = < 4.5 nM

Reading of IC50 for C[C@](N)(c1ccc(F)cc1)c1cnc(N2CCN(c3ncnn4cc(-c5cnn([C@H]6COC[C@H]6O)c5)cc34)CC2)nc1 (single isomer, unassigned) with KIT D816V (Homo sapiens (Human), UniProt P10721, D816V/V560G): < 4.5 nM

# IC50 measured on KIT D816V (Homo sapiens (Human), UniProt P10721, D816V/V560G) for item C[C@](N)(c1ccc(F)cc1)c1cnc(N2CCN(c3ncnn4cc(-c5cnn([C@H]6CCOC6)c5)cc34)CC2)nc1 = < 4.5 nM

Let me check: C[C@](N)(c1ccc(F)cc1)c1cnc(N2CCN(c3ncnn4cc(-c5cnn([C@H]6C[C@H](O)C6)c5)cc34)CC2)nc1 , system KIT D816V (Homo sapiens (Human), UniProt P10721, D816V/V560G), measured IC50 is 4.6 to 10 nM

* * *

biological target: KIT D816V (Homo sapiens (Human), UniProt P10721, D816V); experiment: KIT D816V biochemical enzymatic activity assay (EZReader 2 mobility shift); conditions: at APPKM for ATP, 20 μM ATP, 60 minutes
Sequence (P10721 26-976 D816V): as the sequence (P10721 26-976 V560G/D816V) above, with G535V counted along it
pIC50: −log10 of the molar value.
The following compounds are listed with their measured pIC50 values.

Sample records with pIC50:
compound | value.measured
C[C@](N)(c1ccc(F)cc1)c1cnc(N2CCN(c3ncnn4cc(-c5cnn(CC6COC6)c5)cc34)CC2)nc1 | ≥ 9.52
C[C@](N)(c1ccc(F)cc1)c1cnc(N2CCN(c3ncnn4cc(-c5cnn([C@@H]6COC[C@H]6O)c5)cc34)CC2)nc1 (single isomer, unassigned) | ≥ 9.52

# ---- query compound ----
// assay KIT D816V (Homo sapiens (Human), UniProt P10721, D816V), entry C[C@](N)(c1ccc(F)cc1)c1cnc(N2CCN(c3ncnn4cc(-c5cnn([C@@H]6CCOC6)c5)cc34)CC2)nc1 , pIC50 value = ≥ 9.52
